Exercise: state measured speed of sound for each of the compounds provided.
# Assay Conditions: 313.15 K; 101.33 kPa; Liquid; Sing-around technique in a fixed-path interferometer
Express it in m/s; write the number only.

Q: Please report the measured speed of sound for CCCCCc1c(C)cc(C)c[n+]1CCCC.O=S(=O)([N-]S(=O)(=O)C(F)(F)F)C(F)(F)F
Ans: 1253

Q: Please report the measured speed of sound for CCCCCc1c(C)cc(C)c[n+]1CC.O=S(=O)([N-]S(=O)(=O)C(F)(F)F)C(F)(F)F
Ans: 1270

Q: Please report the measured speed of sound for CCCCCC[n+]1cc(C)cc(C)c1CCCCC.O=S(=O)([N-]S(=O)(=O)C(F)(F)F)C(F)(F)F
Ans: 1251

Q: Please report the measured speed of sound for CCCCCC[n+]1cc(C)cc(C)c1C.O=S(=O)([N-]S(=O)(=O)C(F)(F)F)C(F)(F)F
Ans: 1252

* * *

# Procedure Details: refractive index (Na D-line) (dimensionless)
# Assay Conditions: 338.15 K; 101.33 kPa; Liquid; Standard Abbe refractometry
Property Measured: refractive index
Respond numerically, and do not add a unit to the figure.

Q: Please report the measured refractive index for CCCCCc1c(C)cc(C)c[n+]1CCCC.O=S(=O)([N-]S(=O)(=O)C(F)(F)F)C(F)(F)F
Ans: 1.44744

Q: Please report the measured refractive index for CCCCCC[n+]1cc(C)cc(C)c1C.O=S(=O)([N-]S(=O)(=O)C(F)(F)F)C(F)(F)F
Ans: 1.452

Q: Please report the measured refractive index for CCCCCc1c(C)cc(C)c[n+]1CC.O=S(=O)([N-]S(=O)(=O)C(F)(F)F)C(F)(F)F
Ans: 1.44822

Q: Please report the measured refractive index for CCCCCC[n+]1cc(C)cc(C)c1CCCCC.O=S(=O)([N-]S(=O)(=O)C(F)(F)F)C(F)(F)F
Ans: 1.44769

* * *

# Procedure Details: refractive index (Na D-line) (dimensionless)
# Assay Conditions: 303.15 K; 101.33 kPa; Liquid; Standard Abbe refractometry
Property Measured: refractive index
Respond numerically, and do not add a unit to the figure.

Q: Please report the measured refractive index for CCCCCC[n+]1cc(C)cc(C)c1CCCCC.O=S(=O)([N-]S(=O)(=O)C(F)(F)F)C(F)(F)F
Ans: 1.4591

Q: Please report the measured refractive index for CCCCCc1c(C)cc(C)c[n+]1CC.O=S(=O)([N-]S(=O)(=O)C(F)(F)F)C(F)(F)F
Ans: 1.45947

Q: Please report the measured refractive index for CCCCCc1c(C)cc(C)c[n+]1CCCC.O=S(=O)([N-]S(=O)(=O)C(F)(F)F)C(F)(F)F
Ans: 1.45878

Q: Please report the measured refractive index for CCCCCC[n+]1cc(C)cc(C)c1C.O=S(=O)([N-]S(=O)(=O)C(F)(F)F)C(F)(F)F
Ans: 1.46311

* * *

Exercise: state measured viscosity for each of the compounds provided.
# Assay Conditions: 333.15 K; 101.33 kPa; Liquid; Capillary tube (Ostwald / Ubbelohde) method
Express it in mPa·s; write the number only.

Q: Please report the measured viscosity for CCCCCc1c(C)cc(C)c[n+]1CCCC.O=S(=O)([N-]S(=O)(=O)C(F)(F)F)C(F)(F)F
Ans: 41.5

Q: Please report the measured viscosity for CCCCCC[n+]1cc(C)cc(C)c1CCCCC.O=S(=O)([N-]S(=O)(=O)C(F)(F)F)C(F)(F)F
Ans: 45.2

Q: Please report the measured viscosity for CCCCCc1c(C)cc(C)c[n+]1CC.O=S(=O)([N-]S(=O)(=O)C(F)(F)F)C(F)(F)F
Ans: 40.7

Q: Please report the measured viscosity for CCCCCC[n+]1cc(C)cc(C)c1C.O=S(=O)([N-]S(=O)(=O)C(F)(F)F)C(F)(F)F
Ans: 32.4
